Tested Target: S. cerevisiae (yeast) cells expressing SRIF receptors (Rattus norvegicus, UniProt P30680)
Construct: expressed in transfected cells; host or cells: S. cerevisiae strain LY364
Assay Notes: Yeast bioassay for SRIF antagonist activity (LY364 cells growing in response to SRIF, zone of growth inhibition)
Assay type: cell-based
Condition: Sample type 4th iteration; 10 μL of 5 mg/mL on disk, SRIF 10 nM, read after 3 days
Square brackets hold non-standard residues; d marks the D form. Peptide text beside a SMILES is read from it.
# key: entry, value: Inhibition Zone
Dear colleague, please return just the value in mm, with no unit written.

compound="CC[C@@H](C)[C@@H](NC(=O)[C@@H](Cc1ccccc1)NC(=O)[C@@H](Cc1c[nH]cn1)NC(C)=O)C(=O)N[C@H](CCCNC(=N)N)C(=O)N[C@H](Cc1c[nH]c2ccccc12)C(=O)N[C@H](Cc1ccc(O)cc1)C(N)=O [His Phe Ile Arg Trp Tyr] (Ac-[dH][dF][dI][dR][dW][dY]-NH2)" tested_target="S. cerevisiae (yeast) cells expressing SRIF receptors (Rattus norvegicus, UniProt P30680)" measure="Inhibition Zone" unit_name=mm reading=16

Name the reported Inhibition Zone value associated with the compound CC[C@@H](C)[C@@H](NC(=O)[C@@H](Cc1ccccc1)NC(=O)[C@@H](Cc1c[nH]cn1)NC(C)=O)C(=O)N[C@H](CCCNC(=N)N)C(=O)N[C@H](Cc1c[nH]c2ccccc12)C(=O)N[C@@H](C(N)=O)[C@H](C)O [His Phe Ile Arg Trp Thr] (Ac-[dH][dF][dI][dR][dW][dT]-NH2) 14

----------
Tested Target: S. cerevisiae (yeast) cells expressing SRIF receptors (Rattus norvegicus, UniProt P30680)
Construct: expressed in transfected cells; host or cells: S. cerevisiae strain LY364
Assay Notes: Yeast bioassay for SRIF antagonist activity (LY364 cells growing in response to SRIF, zone of growth inhibition)
Format: cell-based
Condition: Sample type 4th iteration; 10 μL of 5 mg/mL on disk, SRIF 10 nM, read after 3 days
Square brackets hold non-standard residues; d marks the D form. Peptide text beside a SMILES is read from it.
# key: entry, value: Inhibition Zone
Numbers only here, please. The scale is mm.

compound="CC[C@@H](C)[C@@H](NC(=O)[C@@H](Cc1ccccc1)NC(=O)[C@@H](Cc1c[nH]cn1)NC(C)=O)C(=O)N[C@H](CCCNC(=N)N)C(=O)N[C@H](Cc1c[nH]c2ccccc12)C(=O)N[C@H](CC(C)C)C(N)=O [His Phe Ile Arg Trp Leu] (Ac-[dH][dF][dI][dR][dW][dL]-NH2)" reading=15

Lab note: next compound to report on.
What does the record list as Inhibition Zone for CC[C@@H](C)[C@@H](NC(=O)[C@@H](Cc1ccccc1)NC(=O)[C@@H](Cc1c[nH]cn1)NC(C)=O)C(=O)N[C@H](CCCNC(=N)N)C(=O)N[C@H](Cc1c[nH]c2ccccc12)C(=O)N[C@H](Cc1ccccc1)C(N)=O [Peptide 1, h-f-i-r-w-f] (Ac-[dH][dF][dI][dR][dW][dF]-NH2) ? 18

----------
Tested Target: SSTR2 (Rattus norvegicus)
Sequence (P30680 whole entry): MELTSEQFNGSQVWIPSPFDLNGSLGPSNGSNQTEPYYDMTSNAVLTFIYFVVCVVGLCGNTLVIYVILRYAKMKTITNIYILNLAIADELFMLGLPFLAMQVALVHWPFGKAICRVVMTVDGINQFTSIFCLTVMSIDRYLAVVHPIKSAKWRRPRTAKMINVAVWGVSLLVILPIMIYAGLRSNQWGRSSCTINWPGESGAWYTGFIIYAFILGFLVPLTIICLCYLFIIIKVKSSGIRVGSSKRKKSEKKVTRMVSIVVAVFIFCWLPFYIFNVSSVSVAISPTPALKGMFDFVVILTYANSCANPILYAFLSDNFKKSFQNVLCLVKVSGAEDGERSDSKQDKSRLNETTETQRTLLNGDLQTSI
Square brackets hold non-standard residues; d marks the D form. Peptide text beside a SMILES is read from it.
Measure: pKi
Convention used: pKi is expressed as -log10 of the molar concentration.

Examples with their reported pKi follow.
molecule="CC[C@@H](C)[C@@H](NC(C)=O)C(=O)N[C@H](CCCNC(=N)N)C(=O)N[C@H](Cc1c[nH]c2ccccc12)C(=O)N[C@H](Cc1ccccc1)C(=O)N[C@H](Cc1c[nH]cn1)C(=O)N[C@H](Cc1ccccc1)C(N)=O [Peptide 33, i-r-w-f-h-f] (Ac-[dI][dR][dW][dF][dH][dF]-NH2)" tested_target="SSTR2 (Rattus norvegicus)" reading=5.55
molecule="CC[C@@H](C)[C@@H](NC(=O)[C@@H](CCCNC(=N)N)NC(=O)[C@@H](Cc1c[nH]c2ccccc12)NC(=O)[C@@H](Cc1ccccc1)NC(=O)[C@@H](Cc1c[nH]cn1)NC(C)=O)C(=O)N[C@H](Cc1ccccc1)C(N)=O [Peptide 30, h-f-w-r-i-f] (Ac-[dH][dF][dW][dR][dI][dF]-NH2)" tested_target="SSTR2 (Rattus norvegicus)" reading=5.55
molecule="CC[C@@H](C)[C@@H](NC(=O)[C@@H](Cc1ccccc1)NC(=O)[C@@H](Cc1c[nH]cn1)NC(=O)[C@@H](Cc1ccccc1)NC(=O)[C@@H](Cc1c[nH]c2ccccc12)NC(C)=O)C(=O)N[C@H](CCCNC(=N)N)C(N)=O [Peptide 32, w-f-h-f-i-r] (Ac-[dW][dF][dH][dF][dI][dR]-NH2)" tested_target="SSTR2 (Rattus norvegicus)" reading=4.43
molecule="CC[C@@H](C)[C@@H](NC(=O)[C@@H](CCCNC(=N)N)NC(=O)[C@@H](Cc1ccccc1)NC(=O)[C@@H](Cc1c[nH]cn1)NC(C)=O)C(=O)N[C@H](Cc1c[nH]c2ccccc12)C(=O)N[C@H](Cc1ccccc1)C(N)=O [Peptide 31, h-f-r-i-w-f] (Ac-[dH][dF][dR][dI][dW][dF]-NH2)" tested_target="SSTR2 (Rattus norvegicus)" reading=5.60
molecule="CC[C@@H](C)[C@@H](NC(=O)[C@@H](Cc1c[nH]c2ccccc12)NC(=O)[C@@H](Cc1c[nH]cn1)NC(C)=O)C(=O)N[C@H](CCCNC(=N)N)C(=O)N[C@H](Cc1ccccc1)C(=O)N[C@H](Cc1ccccc1)C(N)=O [Peptide 29, h-w-i-r-f-f] (Ac-[dH][dW][dI][dR][dF][dF]-NH2)" tested_target="SSTR2 (Rattus norvegicus)" reading=6.01

Next item in the queue.
Could you tell me which pKi is on file for CC[C@@H](C)[C@H]1NC(=O)[C@@H](Cc2ccccc2)NC(=O)[C@@H](Cc2c[nH]cn2)NC(=O)[C@@H](Cc2ccccc2)NC(=O)[C@@H](Cc2c[nH]c3ccccc23)NC(=O)[C@@H](CCCNC(=N)N)NC1=O [#STR6##] (cyclo([dH][dF][dI][dR][dW][dF])) ? 6.85

----------
Tested Target: rat SSTR2 (Rattus norvegicus, UniProt P30680)
Construct: expressed in transfected cells; host or cells: GH4C1 rat pituitary tumor cells
Sequence (P30680 whole entry): as above
Assay Notes: cAMP accumulation in forskolin-stimulated GH4 C1/SSTR2 cells
Format: cell-based
Condition: GH4-C1; test peptide 2 μM; read-out: cAMP Assay, Intrinsic activity (percent reversal of SSTR2 activation by SRIF or MK678)
Square brackets hold non-standard residues; d marks the D form. Peptide text beside a SMILES is read from it.
Each record gets a class by Emax: lowest: < 10%; middle: ≥ 10% and < 30%; highest: ≥ 30%

compound="CC[C@@H](C)[C@@H](NC(=O)[C@@H](Cc1ccccc1)NC(=O)[C@@H](Cc1c[nH]cn1)NC(C)=O)C(=O)N[C@H](C)C(=O)N[C@H](Cc1c[nH]c2ccccc12)C(=O)N[C@H](Cc1ccccc1)C(N)=O [Peptide 5, h-f-i-a-w-f] (Ac-[dH][dF][dI][dA][dW][dF]-NH2)" category=highest
compound="CC(=O)N[C@H](Cc1c[nH]cn1)C(=O)N[C@H](Cc1ccccc1)C(=O)N[C@H](C)C(=O)N[C@H](CCCNC(=N)N)C(=O)N[C@H](Cc1c[nH]c2ccccc12)C(=O)N[C@H](Cc1ccccc1)C(N)=O [Peptide 4, h-f-a-r-w-f] (Ac-[dH][dF][dA][dR][dW][dF]-NH2)" category=highest
compound="CC[C@@H](C)[C@@H](NC(=O)[C@@H](Cc1ccccc1)NC(=O)[C@@H](C)NC(C)=O)C(=O)N[C@H](CCCNC(=N)N)C(=O)N[C@H](Cc1c[nH]c2ccccc12)C(=O)N[C@H](Cc1ccccc1)C(N)=O [Peptide 2, a-f-i-r-w-f] (Ac-[dA][dF][dI][dR][dW][dF]-NH2)" category=middle
compound="CC[C@@H](C)[C@@H](NC(=O)[C@@H](Cc1ccccc1)NC(=O)[C@@H](Cc1c[nH]cn1)NC(C)=O)C(=O)N[C@H](CCCNC(=N)N)C(=O)N[C@@H](Cc1c[nH]c2ccccc12)C(=O)N[C@H](Cc1ccccc1)C(N)=O [Peptide 17, h-f-i-r-W-f] (Ac-[dH][dF][dI][dR]W[dF]-NH2)" category=highest

State the class of the compound shown: CC[C@@H](C)[C@@H](NC(=O)[C@@H](Cc1ccccc1)NC(=O)[C@H](Cc1c[nH]cn1)NC(C)=O)C(=O)N[C@H](CCCNC(=N)N)C(=O)N[C@H](Cc1c[nH]c2ccccc12)C(=O)N[C@H](Cc1ccccc1)C(N)=O [Peptide 13, H-f-i-r-w-f] (Ac-H[dF][dI][dR][dW][dF]-NH2) middle

// query: CC[C@@H](C)[C@@H](NC(=O)[C@@H](Cc1ccccc1)NC(=O)[C@@H](Cc1c[nH]cn1)NC(C)=O)C(=O)N[C@H](CCCNC(=N)N)C(=O)N[C@H](C)C(=O)N[C@H](Cc1ccccc1)C(N)=O [Peptide 6, h-f-i-r-a-f] (Ac-[dH][dF][dI][dR][dA][dF]-NH2) middle

Next up: CC(=O)N[C@H](Cc1c[nH]cn1)C(=O)N[C@H](Cc1ccccc1)C(=O)N[C@H](CCCNC(=N)N)C(=O)N[C@H](Cc1c[nH]c2ccccc12)C(=O)N[C@H](Cc1ccccc1)C(N)=O [Peptide 9, h-f-r-w-f] (Ac-[dH][dF][dR][dW][dF]-NH2) lowest

Hey, just so you know, these numbers are from patent US5925618A.
